Subject Of Test: T1, human EpCAM expressed on cells (CHO, Colo205, 293) (human, UniProt P16422 24-314)
T1 construct: whole, on cells; also called CHO cells expressing human EpCAM; Colo205 cells expressing human EpCAM
T1 sequence (looked up): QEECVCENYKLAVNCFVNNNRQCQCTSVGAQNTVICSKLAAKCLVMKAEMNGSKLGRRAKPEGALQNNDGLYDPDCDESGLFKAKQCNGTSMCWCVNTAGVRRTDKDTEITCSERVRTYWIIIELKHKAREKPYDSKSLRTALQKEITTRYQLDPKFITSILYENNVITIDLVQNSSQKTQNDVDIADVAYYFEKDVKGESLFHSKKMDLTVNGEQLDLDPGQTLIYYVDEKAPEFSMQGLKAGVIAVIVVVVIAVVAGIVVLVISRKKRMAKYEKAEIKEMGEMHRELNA
Measurement Description: FACS of MMAE conjugates on Colo205 cells expressing human EpCAM, pH 6.0
Measured EC50 accompanies every entry in the list below.
Readout Kind: EC50 (µg/mL)

BA-105.4-01-05 8317-vcMMAE (antibody, V domains shown, antibody conjugated to vcMMAE; chain and residues of attachment not stated) VH: EVQLVQSGAEVKKPGATVKISCKVSGYTFTSYWMHWIRQPPGKGLEWIGYIRPSTGYTEYNQKFKDRFTISRDNSKNTLYLQMNSLRAEDTAVYYCGRGDNWVGFANWGQGTLVTVSS VL: EIVLTQSPDFQSVTPKEKVTITCSASSSISYMHWYQQKPGKAPKLLIYSTSNLASGVPDRFSGSGSGTDFTLKISRVEAEDVGVYYCHQWSTYETFGQGTKVEIK; 0.188
BA-105.4-02-01 8318-vcMMAE (antibody, V domains shown, antibody conjugated to vcMMAE; chain and residues of attachment not stated) VH: EVQLVQSGAEVKKPGATVKISCKVSGYTFTSYWMHWVRQAPGQGLEWMGYIRPSTGYTEYNQKFKDRFTISRDNSKNTLYLQMNSLRAEDTAVYYCGRGDNWVGFANWGQGTLVTVSS VL: EIVMTQSPATLSVSPGERATLSCSASSSISYMHWYQQKPGKAPKLLIYSTSNLASGVPSRFSGSGSGTEFTLTISSLQPDDFATYYCHQWSTYETFGQGTKVEIK; 0.464
BA-105-01-01 7376-vcMMAE (antibody, V domains shown, antibody conjugated to vcMMAE; chain and residues of attachment not stated) VH: QVQLQQSGAELAKPGASVKVSCKASGYTFTSYWMHWVKQRPGQGLEWIGYIRPSTGYTEYNQKFKDKATLTADKSSSTAYMQLSSLTFEDSAVYYCGRGDNWVGFANWGQGTLVTVSA VL: QIVLTQSPAIMSASLGEEIALTCSASSSISYMHWYQQKSGTSPKLLIYSTSNLASGVPSRFSGSGSGTFYSLTISSVEAEDAADYFCHQWSTYHTFGSGTKLEIK; 0.301
